Reported Survival values follow for various molecules
Target: ATP-dependent translocase ABCB1 (Homo sapiens, UniProt P08183)
Sequence (P08183 whole entry): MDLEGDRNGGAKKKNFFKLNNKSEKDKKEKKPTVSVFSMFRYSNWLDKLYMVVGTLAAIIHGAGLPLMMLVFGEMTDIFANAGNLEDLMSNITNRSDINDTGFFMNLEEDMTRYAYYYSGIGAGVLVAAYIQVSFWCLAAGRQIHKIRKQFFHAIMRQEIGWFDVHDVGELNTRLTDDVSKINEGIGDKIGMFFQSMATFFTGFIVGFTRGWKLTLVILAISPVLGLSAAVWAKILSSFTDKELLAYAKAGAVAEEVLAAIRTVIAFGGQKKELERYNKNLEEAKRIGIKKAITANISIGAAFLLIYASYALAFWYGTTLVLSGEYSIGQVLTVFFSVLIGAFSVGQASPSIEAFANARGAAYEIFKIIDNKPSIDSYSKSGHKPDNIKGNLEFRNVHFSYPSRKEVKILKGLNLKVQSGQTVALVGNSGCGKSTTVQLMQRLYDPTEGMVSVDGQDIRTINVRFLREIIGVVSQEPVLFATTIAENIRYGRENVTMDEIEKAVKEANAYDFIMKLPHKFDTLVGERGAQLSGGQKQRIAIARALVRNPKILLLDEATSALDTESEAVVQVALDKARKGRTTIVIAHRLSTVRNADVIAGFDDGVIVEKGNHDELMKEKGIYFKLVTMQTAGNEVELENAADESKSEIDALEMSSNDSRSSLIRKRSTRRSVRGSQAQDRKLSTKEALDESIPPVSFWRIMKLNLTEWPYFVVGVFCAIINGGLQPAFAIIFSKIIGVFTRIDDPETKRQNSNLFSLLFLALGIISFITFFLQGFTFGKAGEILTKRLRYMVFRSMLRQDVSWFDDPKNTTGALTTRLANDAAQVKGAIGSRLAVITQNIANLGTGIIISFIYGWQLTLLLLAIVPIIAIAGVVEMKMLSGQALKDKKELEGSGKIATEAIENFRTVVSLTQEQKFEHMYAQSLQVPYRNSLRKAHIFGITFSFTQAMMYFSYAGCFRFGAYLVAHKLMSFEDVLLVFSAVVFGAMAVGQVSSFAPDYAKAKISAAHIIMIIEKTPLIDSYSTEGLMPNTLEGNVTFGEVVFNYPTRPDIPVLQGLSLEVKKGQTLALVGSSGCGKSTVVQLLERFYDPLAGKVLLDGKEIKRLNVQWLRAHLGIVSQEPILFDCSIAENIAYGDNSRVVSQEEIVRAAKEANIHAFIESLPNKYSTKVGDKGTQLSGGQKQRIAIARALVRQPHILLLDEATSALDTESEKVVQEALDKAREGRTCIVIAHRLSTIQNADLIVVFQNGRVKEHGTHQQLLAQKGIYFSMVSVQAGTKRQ
Assay: Reversal of P-gp-mediated multidrug resistance in human KBV cells assessed as potentiation of paclitaxel-induced cytotoxicity by measuring cell survival at 5 uM after 72 hrs by MTT assay (reference value: 100.58 +/- 7.78%)
Assay type: cell-based

{"Molecular String": "CC(=O)O[C@H]1C[C@@]2(C)[C@@H](C[C@@H](O)[C@H]3[C@@]4(C)CC[C@@H](O)[C@@H](C)[C@@H]4CC[C@@]32C)/C1=C(\\CCC=C(C)C)C(=O)Oc1ccc(CCO[N+](=O)[O-])cc1", "Tested System": "ATP-dependent translocase ABCB1 (Homo sapiens, UniProt P08183)", "Value Unit": "%", "Survival": 45.82}
{"Molecular String": "CCN1CCN(C(=O)CCC(=O)O[C@@H]2CC[C@@]3(C)[C@@H](CC[C@@]4(C)[C@H]3[C@H](O)C[C@H]3/C(=C(\\CCC=C(C)C)C(=O)OCc5ccccc5)[C@@H](OC(C)=O)C[C@@]34C)[C@@H]2C)CC1", "Tested System": "ATP-dependent translocase ABCB1 (Homo sapiens, UniProt P08183)", "Value Unit": "%", "Survival": 34.43}
{"Molecular String": "CCN1CCN(C(=O)c2ccccc2C(=O)O[C@@H]2CC[C@@]3(C)[C@@H](CC[C@@]4(C)[C@H]3[C@H](O)C[C@H]3/C(=C(\\CCC=C(C)C)C(=O)OCc5ccccc5)[C@@H](OC(C)=O)C[C@@]34C)[C@@H]2C)CC1", "Tested System": "ATP-dependent translocase ABCB1 (Homo sapiens, UniProt P08183)", "Value Unit": "%", "Survival": 20.76}

###

Assay: Cytotoxicity against human KBV cells assessed as cell survival at 5 uM after 72 hrs by MTT assay relative to control
Assay type: cell-based
Conditions: read-out: Survival

{"Molecular String": "CC(=O)O[C@H]1C[C@@]2(C)[C@@H](C[C@@H](O)[C@H]3[C@@]4(C)CC[C@@H](OC(=O)CCC(=O)N5CCCCC5)[C@@H](C)[C@@H]4CC[C@@]32C)/C1=C(\\CCC=C(C)C)C(=O)OCc1ccccc1", "viability at 72 h, 5 µM, %": 122}
{"Molecular String": "CC(=O)O[C@H]1C[C@@]2(C)[C@@H](C[C@@H](O)[C@H]3[C@@]4(C)CC[C@@H](OC(=O)CCCCCO[N+](=O)[O-])[C@@H](C)[C@@H]4CC[C@@]32C)/C1=C(\\CCC=C(C)C)C(=O)OCc1ccccc1", "viability at 72 h, 5 µM, %": 94.1}
{"Molecular String": "CC(=O)O[C@H]1C[C@@]2(C)[C@@H](C[C@@H](O)[C@H]3[C@@]4(C)CC[C@@H](OC(=O)CCC(=O)Nc5cccc(N)c5)[C@@H](C)[C@@H]4CC[C@@]32C)/C1=C(\\CCC=C(C)C)C(=O)OCc1ccccc1", "viability at 72 h, 5 µM, %": 135}
{"Molecular String": "CCN1CCN(C(=O)CCC(=O)O[C@@H]2CC[C@@]3(C)[C@@H](CC[C@@]4(C)[C@H]3[C@H](O)C[C@H]3/C(=C(\\CCC=C(C)C)C(=O)OCc5ccccc5)[C@@H](OC(C)=O)C[C@@]34C)[C@@H]2C)CC1", "viability at 72 h, 5 µM, %": 99.8}
